assay: yeast display, Sf9 membrane polyspecificity reagent, FACS + sequencing; frameworks hold sequencing errors
valueKind: polyreactivity (PSR sort gate)

Guide cases for polyreactivity (PSR sort gate), answers given:
querySequence	polyreactivity (PSR sort gate)
QVQLVESGGGLVQAGGSLRLSCAATGRTFSTNAMGGSRQAPGKERELVAAITSSGGRTYYADSVKGRFTISRDNAKNTVYLQMNSLKPEDTAVYYCAAYPWYYRGYWFGYWGQGTQVTVSS	high polyreactivity
QVQLVESGGVLVQAGGSLRLSCAASGLTFDPNAMGWYRQAPGKERELVATITQTDGSTYYADSVKGRFTISRDNAKNTVYLQMNSLKPEDTAVYYCDGLVSRGSDYWGQGTQVTVSS	low polyreactivity
QVQLQESGGGLVQAGGSLRLSCAASGSIFEELDMGWYRQAPGKEREFVAAIGTGSTTYYADSVKGRFTISRDNAKNTVYLQMNSLKPEDTAVYYCAVTYSVYLPFRYWGQGTQVTVSS	high polyreactivity
QVQLVESGGGLVQAGGSLRLSCAASGRIFVINAMGWYRQAPGKEREFVAGITSSGNTNYADSVKGRFTISRDNAKNTVYLQMNSLKPEDTAVYYCNAQVYLTWLTYWLYYPPNDYWGQGTQVTVSS	low polyreactivity
QDQLVESGGGLVQAGGSLRLSCAASGSIFPGYAMGWYRKAPGKEREFVATITWSGGSTYYADSVKGRFTISRDNAKNTVYLQMNSLKPEDTAVYYCNADSNWYYQWNYYGLYDYWGQGTQVTVSS	low polyreactivity

Exercise: Could you share which polyreactivity (PSR sort gate) value was measured for QVQLVESGGGLVQAGGSLRLSCAASGITFDLYAMGRYRQAPGKERELVAASTYYADSVKGRFTISRDNAKNTVYLQMNSLKPEDTAVYFCNTREPVTYDYWGQGTQVTVSS ?
Key: high polyreactivity

Exercise: Please answer likewise for QVQLVESGGGLVQAGGSLRLSCAASGSIFKYSAMAWYRPAPGKERELVATITSGGRTNYADSVKGRFTISRDNAKNTVYLQMNSLKPEDPAVYYCAAGSYYPYHSTTRWYVYWGQGTQVTVSS
Key: high polyreactivity

Exercise: Please answer likewise for QVQLVESGGGLVQTGGSLRISCAASGSTFYYYAIGWYRQAAGKERELVAGISWGGGSTYYEDSVKGRFTISRDNAKNTVYLQMNSLKPEDTAVYYCNALNPKSYDYWGHGTQVTVSS
Key: low polyreactivity

Values were extracted from the nanobody polyreactivity screen of Harvey et al. (2022).
